# tested_on: human PDE2A1 (Homo sapiens (Human))
# Sequence (O00408 other isoform, or with tags, fused parts or gaps): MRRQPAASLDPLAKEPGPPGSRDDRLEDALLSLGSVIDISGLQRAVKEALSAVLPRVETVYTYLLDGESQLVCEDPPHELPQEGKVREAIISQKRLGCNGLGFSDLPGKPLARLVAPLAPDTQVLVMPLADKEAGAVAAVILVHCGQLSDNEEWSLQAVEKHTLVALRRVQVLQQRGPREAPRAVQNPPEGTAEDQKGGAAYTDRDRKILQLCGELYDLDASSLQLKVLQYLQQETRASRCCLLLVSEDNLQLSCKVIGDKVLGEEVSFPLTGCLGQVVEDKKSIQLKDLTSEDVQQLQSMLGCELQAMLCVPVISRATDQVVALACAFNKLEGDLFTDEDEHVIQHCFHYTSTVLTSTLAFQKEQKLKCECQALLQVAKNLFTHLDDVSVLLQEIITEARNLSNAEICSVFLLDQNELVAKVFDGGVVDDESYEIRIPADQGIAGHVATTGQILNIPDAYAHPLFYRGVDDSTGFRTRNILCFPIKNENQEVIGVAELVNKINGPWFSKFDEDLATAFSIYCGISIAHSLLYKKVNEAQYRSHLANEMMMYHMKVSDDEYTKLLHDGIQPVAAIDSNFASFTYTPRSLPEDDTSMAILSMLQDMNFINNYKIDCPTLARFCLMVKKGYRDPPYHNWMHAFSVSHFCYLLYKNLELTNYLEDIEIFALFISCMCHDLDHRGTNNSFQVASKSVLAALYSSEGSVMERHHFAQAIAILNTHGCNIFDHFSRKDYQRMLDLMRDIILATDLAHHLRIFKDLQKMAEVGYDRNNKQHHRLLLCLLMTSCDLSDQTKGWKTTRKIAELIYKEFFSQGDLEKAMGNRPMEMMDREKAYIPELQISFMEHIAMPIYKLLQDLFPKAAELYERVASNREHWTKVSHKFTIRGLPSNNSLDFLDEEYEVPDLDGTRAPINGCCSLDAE
# method_summary: PDE selectivity IMAP FP assay, human PDE2A1
# Type: biochemical
# stated_conditions: Human PDE2; Lab B; read-out: Human PDE2 Ki (nM) Lab B
observed_property: Ki (nM)
Value expressed in nM; do not type the unit.

* CCC(c1ccc(C(C)(F)F)cc1F)n1nc(CO)c2c(=O)[nH]c(N(C)C)nc21 (single isomer, unassigned) [Example 111] | 0.12
* CC(c1ccc(C(F)F)c(F)c1)n1nc(CF)c2c(=O)[nH]c(N(C)C)nc21 (single isomer, unassigned) [Example 196] | 0.31

API: the following record is the query input.
Ask: Item CC(C)C(c1ccc(C(F)(F)F)cc1)n1nc(CO)c2c(=O)[nH]c(O)nc21 (single isomer, unassigned) has what recorded Ki?
Reply: 8.3

###

Listing: Ki of selected molecules
# tested_on: human PDE2A1 (Homo sapiens (Human))
# method_summary: PDE selectivity IMAP FP assay, human PDE2A1
# Type: biochemical
# stated_conditions: Human PDE2; Lab B; read-out: Human PDE2 Ki (nM) Lab B
Value expressed in nM; do not type the unit.

# count of solved cases: 5
- CCC(c1ccc(C(F)F)cc1)n1nc(CF)c2c(=O)[nH]c(N(C)C)nc21 (single isomer, unassigned) [Example 347]: 0.08
- CN(C)c1nc2c(c(CO)nn2C(c2ccc(OC(F)F)cc2)C2CC2)c(=O)[nH]1 (single isomer, unassigned) [Example 129]: 0.55
- CC(C)c1ccc(C(C(C)C)n2nc(CO)c3c(=O)[nH]c(N(C)C)nc32)cc1 (single isomer, unassigned) [Example 78]: 0.11
- CC(c1ccc(OC(F)F)c(Cl)c1)n1nc(C(F)(F)F)c2c(=O)[nH]c(O)nc21 (single isomer, unassigned) [Example 326]: 16
- CC(C)C(c1ccc(C(C)(F)F)c(F)c1)n1nc(CF)c2c(=O)[nH]c(N(C)C)nc21 (single isomer, unassigned) [Example 218]: 0.16

Ask: Item `CC(C)[C@@H](c1ccc(C(C)(C)C)cc1)n1nc(CF)c2c(=O)[nH]c(O)nc21` has what recorded Ki?
Reply: 2.3

###

# tested_on: human PDE2A1 (Homo sapiens (Human))
# method_summary: PDE selectivity IMAP FP assay, human PDE2A1
# Format: biochemical
# stated_conditions: Human PDE2; Lab B; read-out: Human PDE2 Ki (nM) Lab B
observed_property: log10 of Ki (log10 of the value in nM)
A difference of one corresponds to tenfold Ki; all values are log10 with Ki in nM.

Ask: Item CN(C)c1nc2c(c(CO)nn2C(c2ccc(C(F)F)cc2)C2CC2)c(=O)[nH]1 (single isomer, unassigned) [Example 63] has what recorded log10 of Ki?
Reply: 0.51

Ask: Next entry: CN(C)c1nc2c(c(CF)nn2C(c2ccc(C(F)(F)F)cc2F)C2CC2)c(=O)[nH]1 (single isomer, unassigned) [Example 203]
Reply: -0.21

Ask: Next entry: CCC(c1ccc(OC(F)F)cc1)n1nc(CO)c2c(=O)[nH]c(N(C)C)nc21 (single isomer, unassigned) [Example 124]
Reply: -0.14

Ask: Next entry: CCC(c1ccc(C(F)(F)F)cc1F)n1nc(CO)c2c(=O)[nH]c(N(C)C)nc21 (single isomer, unassigned) [Example 130]
Reply: -1.15

Ask: Next entry: CC(c1ccc(C(F)F)cc1)n1nc(CF)c2c(=O)[nH]c(N(C)C)nc21 (single isomer, unassigned) [Example 191]
Reply: -0.42

Ask: Next entry: CCC(c1ccc(OC(F)F)c(F)c1)n1nc(CF)c2c(=O)[nH]c(N(C)C)nc21 (single isomer, unassigned) [Example 340]
Reply: -0.24

The measured values listed here are drawn from patent US10174037B2.
